Origin of the recorded values: PubChem BioAssay (NCI)

system: HCT-15 colon; assay: NCI tumour cell line growth inhibition, 48 h
Provide the recorded TGI for the entries that follow.

Measured TGI, CN(C)CCOc1ccc2[nH]c(C(=O)N3CC(CCl)c4ccc(N)cc43)cc2c1 (stereo unspecified) : 20.7 µM

The reported value for C=C(C)C1CCC2(C(=O)O)CCC3(C)C(CCC4C5(C)CCC(O)C(C)(C)C5CCC43C)C12 (stereo unspecified) in terms of TGI is 23.5 µM

`CCOC(=O)[C@H](CO)Nc1c(O)c2c(c(O)c1Cl)C(=O)C=CC2=O` has a reported TGI of > 10 µM

TGI reported for this compound CCC1OC2C(CC=C(C)C)=C3OC(C)(O)C(C)(CC)C(=O)C3=C3OC(=O)C=C1C32 (stereo unspecified) : > 100 µM

Recorded TGI (compound `[Au+].c1c[n-]cn1.c1ccc([PH+](c2ccccc2)c2ccccc2)cc1` ): 15.8 µM

Field TGI (entry `CON(C(=O)OC(C)(C)C)c1ccccc1` ) reads > 100 µM

// TGI lookup, compound = `N/C(=N/N=C/c1cccc(F)c1)NO` , result: > 100 µM

// recorded TGI for `Cc1nc(-n2nc(-c3ccccc3)cc2-c2ccccc2)sc1C(/C=C/c1ccc([N+](=O)[O-])cc1)=N/NC(N)=S` : > 100 µM

Measured TGI of `COc1cccc(/C=N/NC(=O)CN(C)C)c1O` : > 100 µM

For reference, reported TGI for `CN(CCCCN)c1ccc2c(=O)[nH][nH]c(=O)c2c1` stands at > 100 µM

TGI measured on O=C1NC(Cc2ccccc2)C(=O)N2CCCC12 (stereo unspecified) = > 100 µM

---

tested on: PC-3 prostate; test: NCI tumour cell line growth inhibition, 48 h
readout.kind: TGI

Data point: `CN1c2ccccc2S(=O)(=O)n2c(COc3ccccc3)nnc21` ; TGI = > 100 µM

COC1/C=C/OC2(C)Oc3c(C)c(O)c4c(O)c(c(C=NOC(c5ccccc5)c5ccccc5)c(O)c4c3C2=O)NC(=O)/C(C)=C/C=C/C(C)C(O)C(C)C(O)C(C)C(OC(C)=O)C1C (stereo not drawn) yielded TGI of 4.15 µM

TGI reading for Cc1ccnc(NC(c2ccccc2)c2ccc3cccnc3c2O)c1 (stereo not drawn) : > 100 µM

Record `CCCCCCn1c2c(c3c(O)cccc31)C(=O)c1ccccc1-2` . Reported TGI: 36.6 µM

For record C=C(C)C1CCC2(C(=O)O)CCC3(C)C(CCC4C5(C)CCC(O)C(C)(C)C5CCC43C)C12 (stereo not drawn) the listed TGI is 23.8 µM

// TGI value for `CCN(CC)CCNC(=O)C(Cl)=C1C(Cl)=C(Cl)C(Cl)=C1Cl` : 41.3 µM

According to the records, this compound `CNC(=O)c1cc(Oc2ccc3nc(NC(=O)Nc4cc(C(F)(F)F)cc(C(F)(F)F)c4)sc3c2)ccn1` displays TGI of 2.29 µM

// TGI value for `O=C(NCCCl)NCc1ccccc1` : > 100 µM

Sample C=CC(=C)CCC(Br)C(C)(C)Cl (stereo not drawn) ; TGI observed: > 100 µM

get_value(item= O=C(NCCC1CN(S(=O)(=O)C(F)(F)F)c2ccccc21)OCc1ccccc1 (stereo not drawn) , readout=TGI) returns > 100 µM

So, `COc1cc(C(=O)N(C(=O)N2CCCCC2)c2ccccc2)cc(OC)c1OC` ? Its TGI was > 100 µM

Entry under test: `COC(=O)[C@H](C)[C@@H]1CC[C@](C)(CCC2=C(C)CCCC2(C)C)OO1` . Its TGI was > 25 µM

The reported TGI of the compound `Cc1cc2nc3c4cc([N+](=O)[O-])ccc4n(CCN(C)C)c3nc2cc1C` was 10.7 µM

Field TGI (entry CCC1OC(=O)CC(O)C(C)C(OC2OC(C)CC(N(C)C)C2O)C(CC=O)CC(C)C(=O)/C=C/C2(C)OC2C1C (stereo not drawn) ) reads > 100 µM

Short answer for `[Au+].c1c[n-]cn1.c1ccc([PH+](c2ccccc2)c2ccccc2)cc1` : TGI was 17.3 µM

Entry `C=C(C)[C@@H]1CCC2=C(CC[C@]3(C)[C@@H]([C@@H](CCC=C(C)C)C(=O)O)[C@H](O)C[C@@]23C)[C@@]1(C)CCC(=O)O` — recorded TGI = > 100 µM

# TGI of `CN1CCN(Cn2nc(-c3cc(F)c(Cl)cc3Cl)oc2=S)CC1` = > 100 µM

The measured TGI associated with `CCOC(=O)[C@H](CO)Nc1c(O)c2c(c(O)c1Cl)C(=O)C=CC2=O` reads > 10 µM

Lab note: measured TGI of CCN(CC)CC(O)c1cc(-c2ccc(Cl)cc2)nc2cc(Cl)ccc12 (stereo not drawn) was 5.98 µM

Looking up `O=C(O)c1c[nH]c2c(ccc3[nH]cc(C(=O)O)c(=O)c32)c1=O` , I found its TGI recorded as > 100 µM

What the record says about `COc1cccc(/C=N/NC(=O)CN(C)C)c1O` : TGI is > 100 µM

`CC(C)(/C=N/O)/[N+]([O-])=C/c1ccccc1` yielded TGI of > 100 µM

Entry `CCc1n[nH]c(=O)n1N=C(c1ccccc1)c1ccccc1` , TGI reported as > 100 µM

Data point: `COc1cc2nc3n(c(=O)c2cc1OC)CCCCC3` ; TGI = > 100 µM

Given item `Cc1csc2c(=O)n(COCc3ccccc3)c(=O)[nH]c12` , the value recorded as its TGI is > 100 µM

TGI for `NCCN(CCN)/[N+]([O-])=N/O` is > 100 µM

// TGI lookup, compound = NC(CS)C(=O)NCCNc1ccc(NCCNC(=O)C(N)CS)c2c1C(=O)c1c(O)ccc(O)c1C2=O (stereo not drawn) , result: 1.13 µM

Input `Cc1cc(N)c2cc(NC(=O)Nc3ccc4nc(C)cc(N)c4c3)ccc2n1` . Output TGI: > 100 µM

TGI measured on `COc1ccc2c(c1)C(=O)c1c-2c(OCCN2CCCCC2)nc2ccc(OC)cc12` = 21.3 µM

compound CCOC(=O)CCC(C(=O)OCC)n1nnc2ccc(Nc3c(C)[n+]([O-])c4cc(F)c(OCC)cc4[n+]3[O-])cc21 (stereo not drawn) , TGI observed: > 100 µM

Given item `COc1cc2c(cc1OC)-c1[nH]c3ccc([N+](=O)[O-])cc3c1CC(=O)N2` , the value recorded as its TGI is 99.4 µM

Per the records, this compound ( `O=C(CBr)NCCc1c[nH]c2ccccc12` ) has TGI equal to 4.03 µM

Memo: CSc1nc(SC)c2c(C)cn(C3OC(C)C(O)C(O)C3O)c2n1 (stereo not drawn) , reported TGI: > 100 µM

For N#CC(C#N)C1CN2CCC1CC2 (stereo not drawn) the compound record lists TGI as > 100 µM

Record O=C(c1cccnc1)N1N=C(c2ccc3c(c2)OCO3)CC1(O)c1cc(F)c(Cl)cc1Cl (stereo not drawn) , field TGI: > 100 µM

// TGI lookup, compound = NC(CSC1(c2ccc(Cl)cc2)c2ccccc2-c2ccccc21)C(=O)O (stereo not drawn) , result: 43.5 µM

Field TGI (entry `COc1cccc(/C=C2\CCc3ccccc3C2=O)c1` ) reads 65.1 µM

Recorded TGI (compound `O=C1Nc2c(ccc(Cl)c2Cl)/C1=C\c1cc(C(F)(F)F)cc(C(F)(F)F)c1` ): 4.51 µM
